# maps each entry to its GI50
tested on: SK-MEL-2; assay: NCI tumour cell line growth inhibition, 48 h
Activity calls are given as the source filed them. No stated cut-off is given here; in the data, active = GI50 up to about 1.1 µM and inactive = higher.

Worked set:
O=C(O)C12C3C4C1C1C2C3C1(Br)C41OCCO1 (stereo not given)
> 100 µM (inactive)
CCc1n[nH]c(=O)n1-n1c(C)ccc1C
> 100 µM (inactive)
Cc1ccc(/C=N/NS(=O)(=O)c2ccc(/C=C3\NC(=O)NC3=O)cc2)cc1
> 100 µM (inactive)

Let's switch to this molecule now.
Lab note: record GI50 of CCN(CCCl)CCCCNc1c2ccccc2nc2ccc(OC)cc12 tested on SK-MEL-2.
0.662 µM (active)
